Biological target: hNaV1.7 (Homo sapiens, UniProt Q15858)
Construct: expressed in transfected cells; host or cells: HEK293
Sequence (Q15858 whole entry): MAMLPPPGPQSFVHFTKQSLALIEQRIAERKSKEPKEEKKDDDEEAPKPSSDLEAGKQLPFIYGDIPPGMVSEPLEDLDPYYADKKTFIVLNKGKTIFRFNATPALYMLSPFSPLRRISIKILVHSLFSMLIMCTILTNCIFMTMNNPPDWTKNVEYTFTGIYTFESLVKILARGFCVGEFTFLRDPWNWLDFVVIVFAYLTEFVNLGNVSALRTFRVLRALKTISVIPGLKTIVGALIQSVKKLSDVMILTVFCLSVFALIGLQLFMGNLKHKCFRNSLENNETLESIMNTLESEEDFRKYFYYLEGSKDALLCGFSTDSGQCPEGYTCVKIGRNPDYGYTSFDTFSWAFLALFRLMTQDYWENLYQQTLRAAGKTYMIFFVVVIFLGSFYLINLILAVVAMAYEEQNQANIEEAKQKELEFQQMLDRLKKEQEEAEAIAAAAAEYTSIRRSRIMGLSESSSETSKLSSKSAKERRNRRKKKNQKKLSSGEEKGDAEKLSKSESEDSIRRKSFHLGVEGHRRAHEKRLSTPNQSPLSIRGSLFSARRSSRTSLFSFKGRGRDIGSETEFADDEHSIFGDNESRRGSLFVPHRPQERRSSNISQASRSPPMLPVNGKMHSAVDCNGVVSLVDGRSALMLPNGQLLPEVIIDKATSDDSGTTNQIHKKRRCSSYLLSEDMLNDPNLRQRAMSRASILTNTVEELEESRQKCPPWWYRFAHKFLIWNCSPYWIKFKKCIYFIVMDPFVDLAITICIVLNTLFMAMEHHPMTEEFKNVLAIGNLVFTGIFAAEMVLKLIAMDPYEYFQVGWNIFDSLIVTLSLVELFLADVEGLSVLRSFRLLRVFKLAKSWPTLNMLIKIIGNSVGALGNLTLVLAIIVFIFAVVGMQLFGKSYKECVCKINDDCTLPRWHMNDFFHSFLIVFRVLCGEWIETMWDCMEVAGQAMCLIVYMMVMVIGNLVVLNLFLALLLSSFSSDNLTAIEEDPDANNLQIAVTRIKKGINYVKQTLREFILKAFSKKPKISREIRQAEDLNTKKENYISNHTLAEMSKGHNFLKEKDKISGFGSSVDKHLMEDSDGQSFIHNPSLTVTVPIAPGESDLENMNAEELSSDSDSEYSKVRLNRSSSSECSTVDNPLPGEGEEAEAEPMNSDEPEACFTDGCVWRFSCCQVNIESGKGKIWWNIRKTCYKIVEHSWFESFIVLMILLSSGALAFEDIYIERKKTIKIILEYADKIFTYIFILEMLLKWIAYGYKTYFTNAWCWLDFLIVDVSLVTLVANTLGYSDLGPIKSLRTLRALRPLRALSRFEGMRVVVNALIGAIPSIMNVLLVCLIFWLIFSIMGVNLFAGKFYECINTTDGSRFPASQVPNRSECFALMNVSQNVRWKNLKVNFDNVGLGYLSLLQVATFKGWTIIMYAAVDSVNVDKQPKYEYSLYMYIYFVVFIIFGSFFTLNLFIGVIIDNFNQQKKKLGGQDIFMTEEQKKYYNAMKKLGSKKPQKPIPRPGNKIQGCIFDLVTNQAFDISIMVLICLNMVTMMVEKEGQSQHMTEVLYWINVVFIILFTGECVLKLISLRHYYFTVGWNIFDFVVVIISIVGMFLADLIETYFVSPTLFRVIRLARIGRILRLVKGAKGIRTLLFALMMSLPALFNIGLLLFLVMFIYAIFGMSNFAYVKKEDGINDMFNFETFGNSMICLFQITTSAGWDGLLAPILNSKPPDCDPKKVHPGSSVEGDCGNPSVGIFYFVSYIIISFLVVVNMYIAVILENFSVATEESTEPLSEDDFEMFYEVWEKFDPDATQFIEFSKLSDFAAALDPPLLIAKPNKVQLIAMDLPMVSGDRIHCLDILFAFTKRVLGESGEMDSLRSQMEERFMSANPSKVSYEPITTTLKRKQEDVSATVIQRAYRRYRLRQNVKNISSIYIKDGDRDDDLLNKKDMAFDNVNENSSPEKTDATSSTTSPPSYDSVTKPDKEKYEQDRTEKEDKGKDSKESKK
Assay: QPatch NaV1.7 assay
Format: cell-based
Conditions: HEK293-hNaV1.7 cells, QPatch16x; holding voltage V1/2 SSI, where half of the channels are inactivated; read-out: QP Nav1.7 SSI vhalf pIC50 (converted)
Where a name gives a salt, the structure may show the parent alone.
Below, each of the molecules is paired with its reported IC50 value.
Metric Name: IC50

> print(dat)
                                   molecule  experimental.value
1  Cc1cc(-c2ccc(C(F)(F)F)cc2)nc([C@@H]2CC[C@]3(CC(C)(C)NC3=O)N2)n1 [Example 45, hydrochloride]               20 µM
2  CN1CC[C@@]2(CC[C@@H](c3nccc(-c4cccc(OC(F)(F)F)c4)n3)N2)C1=O [Example 19, hydrochloride]               20 µM
3  Cc1cc(-c2ccc(C(F)(F)F)cc2)nc([C@@H]2CC[C@@]3(CCNC3=O)N2)n1 [Example 41, hydrochloride]             2.51 µM
4  CC(C)Oc1ccc(-c2ccnc([C@@H]3CC[C@]4(CCN(C)C4=O)N3)n2)cc1 [Example 24, hydrochloride]               20 µM

----------
Target: hNaV1.7 (Homo sapiens, UniProt Q15858)
Construct: expressed in transfected cells; host or cells: HEK293
Assay: QPatch NaV1.7 assay
Type: cell-based
Conditions: HEK293-hNaV1.7 cells, QPatch16x; holding voltage V1/2 SSI, where half of the channels are inactivated; read-out: QP Nav1.7 SSI vhalf pIC50 (converted)
Structures can show the parent of a compound that is named as a salt.
// boundary case: IC50 equal to 10 µM maps to false (0); strictly smaller maps to true (1)

> print(dat)
                                    molecule                            assay.system      class
 1  CC(C)Oc1ccc(-c2ccnc([C@H]3CC[C@@]4(CCN(C)C4=O)N3)n2)cc1 [Example 25, hydrochloride]  hNaV1.7 (Homo sapiens, UniProt Q15858)   true (1)
 2  CCOc1ccc(F)c(-c2cc(C)nc([C@@H]3CC[C@@]4(CCN(C)C4=O)N3)n2)c1 [Example 11, hydrochloride]  hNaV1.7 (Homo sapiens, UniProt Q15858)   true (1)
 3  CCOc1ccc(F)c(-c2ccnc([C@H]3CC[C@]4(CCN(C)C4=O)N3)n2)c1 [Example 14, hydrochloride]  hNaV1.7 (Homo sapiens, UniProt Q15858)   true (1)
 4  Cc1cc(-c2ccc(C(F)(F)F)cc2)nc([C@@H]2CC[C@@]3(CC(C)(C)NC3=O)N2)n1 [Example 44, hydrochloride]  hNaV1.7 (Homo sapiens, UniProt Q15858)  false (0)
 5  Cc1cc(-c2cc(OC(F)(F)F)ccc2F)nc([C@@H]2CC[C@@]3(CCN(C)C3=O)N2)n1 [Example 31, hydrochloride]  hNaV1.7 (Homo sapiens, UniProt Q15858)   true (1)
 6  Cc1cc(-c2ccc(C(F)(F)F)cc2)nc([C@@H]2CC[C@]3(CCN(C)C3=O)N2)n1 [Example 5, hydrochloride]  hNaV1.7 (Homo sapiens, UniProt Q15858)  false (0)
 7  Cc1cc(-c2ccc(OC(F)(F)F)cc2)nc([C@H]2CC[C@]3(CCN(C)C3=O)N2)n1 [Example 30, hydrochloride]  hNaV1.7 (Homo sapiens, UniProt Q15858)  false (0)
 8  Cc1cc(-c2ccc(C(F)(F)F)cc2)nc([C@H]2CC[C@]3(CCN(C)C3=O)N2)n1 [Example 6, hydrochloride]  hNaV1.7 (Homo sapiens, UniProt Q15858)  false (0)
 9  CCOc1ccc(F)c(-c2cc(C)nc([C@@H]3CC[C@]4(CCCNC4=O)N3)n2)c1 [Example 13, hydrochloride]  hNaV1.7 (Homo sapiens, UniProt Q15858)   true (1)
10  Cc1cc(-c2ccc(C(F)(F)F)cc2)nc([C@H]2CC[C@]3(CCNC3=O)N2)n1 [Example 42, hydrochloride]  hNaV1.7 (Homo sapiens, UniProt Q15858)  false (0)
11  CCOc1ccc(F)c(-c2ccnc([C@@H]3CC[C@]4(CCN(C)C4=O)N3)n2)c1 [Example 15, hydrochloride]  hNaV1.7 (Homo sapiens, UniProt Q15858)  false (0)
